tested on: HaCat; test: Cytotoxic Profiling of Annotated Libraries Using Quantitative High-Throughput Screening (AID 1296008); settings: Five cell lines viability, CellTiter-Glo ATP luminescence, 48-72 h; further: nearly all actives have a fitted effect of over 60% in size
Results filed as inconclusive are left out. Calls of active or inactive are those of the source. The call rests on the fitted dose curve; in most records, active means well fitted inhibition curve with a large enough effect; inconclusive means small, poorly fitted or top-dose-only effect; inactive means flat fitted curve, though single readings scatter.
// allowed return values: yes (active), no (inactive)

Query: Could you check what this test reported for Cc1ccccc1C(C(=O)NC1CCCCC1)N(C(=O)CNc1ccc(C#N)cc1)c1cccc(F)c1 (stereo not given) ?
Result: no

Query: # lookup: test call for CC1C(=O)OC2C(O)C34C5CC(C(C)(C)C)C36C(OC(=O)C6O)OC4(C(=O)O5)C12O (stereo not given)
Result: no

Query: Please indicate how the test categorized `O=C(CC12CC3CC(CC(C3)C1)C2)Nc1cccc2nc(NCCNCCO)ccc12` .
Result: no

Query: Which outcome did this test record for the compound CN1C(=O)C(Cc2c[nH]c3ccccc23)NC1=S (stereo not given) ?
Result: no

Query: For `C=CC(=O)Nc1cccc(Sc2nc(Nc3ccc(N4CCN(C)CC4)cc3)ncc2Cl)c1` , which call appears in the assay record?
Result: yes

Query: Hi, do you know how `Cc1cc(CS(=O)(=O)c2ccccc2)cc(OCc2ccc(CN3CCC[C@H]3CO)cc2)c1` came out in this test?
Result: yes

Query: So what was the verdict on N#CC(c1ccnc(NCCc2cccnc2)n1)c1nc2ccccc2s1 (stereo not given) in this test?
Result: no

Query: Could you kindly confirm the outcome this assay logged for `N[C@@H](CC(=O)N1CCn2c(nnc2C(F)(F)F)C1)Cc1cc(F)c(F)cc1F` ?
Result: no

Query: // return assay outcome for `CC(C)c1c(C(=O)Nc2ccccc2)c(-c2ccccc2)c(-c2ccc(F)cc2)n1CC[C@H](O)C[C@@H](O)CC(=O)O`
Result: yes

Query: Per the assay record, what outcome was assigned to `OC[C@H]1O[C@@H](Oc2ccc(O)cc2)[C@H](O)[C@@H](O)[C@H]1O` ?
Result: no

Provenance of the data: PubChem BioAssay (NCATS)
